B1: LINE1-mini (parent)
chain: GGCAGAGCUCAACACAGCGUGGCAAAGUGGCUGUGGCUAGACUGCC

Variants of: B1
Test: self-cleavage, relative activity (ratio to wild type); higher = more cleavage; in vitro, sequencing; the parent is a self-cleaving ribozyme
Quick rule for you: self-cleavage at 0.1 or higher means 1, lower means 0.

{"columns": ["MUTATION_STRING", "LABEL_VALUE"],
 "data": [
  ["U43C G44A", 1],
  ["C3A C31U", 1],
  ["C18A G35A", 0],
  ["C23A G29U", 1],
  ["G1C G22U", 1],
  ["C8U C18A", 1],
  ["C3U G36A", 1],
  ["A12C A39G", 0],
  ["U9G C15G", 1],
  ["G7U A41C", 1],
  ["A26U G35C", 0],
  ["C3A G7A", 1],
  ["G33U C45A", 0],
  ["G5C C37G", 0],
  ["G36U C45A", 1],
  ["C37G U43C", 0],
  ["G19U U20G", 1],
  ["G7C C37G", 0],
  ["C37A A41U", 0],
  ["U28A C45A", 1],
  ["U38A C45A", 1],
  ["A12C A41U", 0]
]}
